System: DLD1
TEST_NAME: TCF/Wnt firefly luciferase reporter signal relative to plate median (fraction of plate median); higher = higher Wnt reporter signal
RUN_CONDITIONS: 5 µM; treatment time 24 h; reporter: 7TFP
QUANTITY: TCF/Wnt firefly luciferase reporter signal

[[record]]
compound = "COC(=O)c1c(C)cc(OC)cc1O"
target_or_system = "DLD1"
measured_value = 0.885

[[record]]
compound = "NNC(=O)c1ccncc1"
target_or_system = "DLD1"
measured_value = 0.892

[[record]]
compound = "COc1ccc(C(C)=O)c(O)c1"
target_or_system = "DLD1"
measured_value = 1.06

[[record]]
compound = "CCCC(C(=O)OCCN(CC)CC)(c1ccccc1)c1ccccc1"
target_or_system = "DLD1"
measured_value = 1.22

[[record]]
compound = "CC1=C(C(=O)O)N2C(=O)[C@@H](NC(=O)[C@H](N)c3ccc(O)cc3)[C@H]2SC1"
target_or_system = "DLD1"
measured_value = 0.907


What measured TCF/Wnt firefly luciferase reporter signal goes with C=CC[C@@H]1/C=C(\C)C[C@H](C)C[C@H](OC)[C@H]2O[C@@](O)(C(=O)C(=O)N3CCCC[C@H]3C(=O)O[C@H](/C(C)=C/[C@@H]3CC[C@@H](O)[C@H](OC)C3)[C@H](C)[C@@H](O)CC1=O)[C@H](C)C[C@@H]2OC ?
1.08

What measured TCF/Wnt firefly luciferase reporter signal goes with O=C(O)c1cccnc1 ?
0.969

What measured TCF/Wnt firefly luciferase reporter signal goes with CN[C@H](CC(=O)O)C(=O)O ?
1.02
